- measurementTarget: T1, cynomolgus monkey IL-33 expressed with a C-terminal hexahistidine tag (cynomolgus monkey)
- T1 construct: also called MfIL-33-6His; Mf-IL-33-6His
- T1 chain: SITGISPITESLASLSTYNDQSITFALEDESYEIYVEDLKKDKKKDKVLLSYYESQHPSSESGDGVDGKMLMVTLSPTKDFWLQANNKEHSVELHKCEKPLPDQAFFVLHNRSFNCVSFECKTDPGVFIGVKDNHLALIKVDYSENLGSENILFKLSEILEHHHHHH
- assayComment: SPR 25C, pH6.0 chase, mAb captured
reportedProperty: t½ Ratio (pH 7.4/pH 6.0)

Please list t½ Ratio (pH 7.4/pH 6.0) recorded for the binder H1M9568N (antibody, mouse IgG1, V domains shown, Human variable domains, mouse IgG1 Fc (H1M)) VH: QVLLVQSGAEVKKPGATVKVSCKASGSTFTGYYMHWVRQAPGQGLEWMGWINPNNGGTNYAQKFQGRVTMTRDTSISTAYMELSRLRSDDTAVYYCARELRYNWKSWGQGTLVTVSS VL: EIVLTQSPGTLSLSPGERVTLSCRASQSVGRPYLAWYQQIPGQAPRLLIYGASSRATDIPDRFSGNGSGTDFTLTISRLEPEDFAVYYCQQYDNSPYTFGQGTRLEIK 1.2

Please list t½ Ratio (pH 7.4/pH 6.0) recorded for the binder H4H9660P (antibody, human IgG4, V domains shown, Human IgG4 Fc (H4H)) VH: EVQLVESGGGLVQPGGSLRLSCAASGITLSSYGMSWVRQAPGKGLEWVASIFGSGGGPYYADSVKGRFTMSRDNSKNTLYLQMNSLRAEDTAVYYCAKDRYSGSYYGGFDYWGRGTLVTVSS VL: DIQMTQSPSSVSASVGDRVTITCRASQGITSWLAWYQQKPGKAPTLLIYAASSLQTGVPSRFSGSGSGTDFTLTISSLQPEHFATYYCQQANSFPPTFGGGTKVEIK 0.7

Please list t½ Ratio (pH 7.4/pH 6.0) recorded for the binder H4H9664P (antibody, human IgG4, V domains shown, Human IgG4 Fc (H4H)) VH: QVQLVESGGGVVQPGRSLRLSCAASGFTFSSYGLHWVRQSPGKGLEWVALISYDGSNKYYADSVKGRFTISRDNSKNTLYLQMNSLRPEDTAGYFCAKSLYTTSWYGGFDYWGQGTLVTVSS VL: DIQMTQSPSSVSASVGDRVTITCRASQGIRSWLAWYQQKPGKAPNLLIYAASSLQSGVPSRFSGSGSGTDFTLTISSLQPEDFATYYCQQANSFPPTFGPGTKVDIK 0.3
